Biological target: T1, biotinylated IL-22 with an N-terminal His/FLAG tag (bio.IL-22H/F) (human, UniProt Q9GZX6 34-179, biotinylated (site not stated))
T1 construct: not shown: N-terminal His/FLAG tag
T1 sequence: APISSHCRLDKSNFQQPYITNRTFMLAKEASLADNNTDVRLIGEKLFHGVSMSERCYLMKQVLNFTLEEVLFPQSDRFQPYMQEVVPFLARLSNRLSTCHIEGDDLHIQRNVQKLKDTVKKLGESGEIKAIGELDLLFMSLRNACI
Experiment: DELFIA competition assay: scFv titrated against bio.IL-22H/F binding to the captured IL-22 receptor complex
resultType: IC50 (nM)
Entry rule: numbers only, all in nM.

Short answer for 097D09 scFv (non-germlined) (scFv, Optimized clone derived from GIL01) scFv: EVQLVESGGGLVTPGGSLRLSCAASGFTFSDYYMSWVRQAPGRGLEWVSAISGSGGSTYYADSVKGRITISRDNAKNSLYLQMSSLRSEDTAVYYCARGLWVWDPLDYWGRGTLVTVSSGGGGSGGGGSGGGGSDIQMTQSPSTLSASIGDRVTITCRASEGIYHWLAWYQQKPGKAPKLLIYKASSLASGAPSRFSGSGFGTDFTLTISSLQPDDFATYYCQQYSEFAWTFGGGTKLEIKRAAAH : IC50 was 0.39

Item: 376B10 scFv (non-germlined) (scFv, Optimized clone derived from GIL68) scFv: EVQLVQSGAEVKKPGASVKVSCQASGYTFSDYYIHWVRQTPGQGFEWMGWVNPDTGGTRYAQKFQGWVTMTRDMSNTTAYMELPGLRDDDTAVYYCARDLTGYDQYTAWGQGTLVTVSSGGGGSGGGGSGGGGSAQSVLTQPPSVSVAPGKTATITCGGNNFRNKRVHWYQQRPGQAPVLVIYYDSDRPSGIPERFSGSRSGNTATLTISRVEAGDEADFYCSTFDPFTDRPLFGGGTKLTVLGAAAH | IC50: 0.79

Just so you know, measured IC50 for 062G05 scFv (non-germlined) (scFv, Optimized clone derived from GIL16) scFv: QVQLVESGAEVKKPGASVKVSCKASGYTFTSYGISWVRQAPGQGLEWMGWISAYTGNTNYAQKFQGRVTMTTDTSTSTAYMELRSLRSDDTAVYYCARDRGYYDAFDIWGQGTLVTVSSGGGGSGGGGSGGGGSDIQMTQSPSTLSASIGDRVTITCRASEGIYHWLAWYQQKPGKAPKLLIYKASSLASGAPSRFSGSGFGTDFTLTISSLQPDDFATYYCQQMGEWKAAFGGGTKLEIKRAAAH came out at 0.1
